The compounds below have reported IC50 for UniProt:P17931.
Sequence (P17931 whole entry): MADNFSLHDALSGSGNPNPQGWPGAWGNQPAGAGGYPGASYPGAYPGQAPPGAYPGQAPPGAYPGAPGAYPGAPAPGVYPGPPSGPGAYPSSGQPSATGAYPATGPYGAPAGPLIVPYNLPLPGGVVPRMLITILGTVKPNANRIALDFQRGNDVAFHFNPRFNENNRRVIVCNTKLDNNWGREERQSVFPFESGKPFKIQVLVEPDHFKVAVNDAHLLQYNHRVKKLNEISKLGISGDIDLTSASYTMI
A number alone suffices; assume µM.

>>> endpoint_result("CO[C@@H]1[C@@H](n2cc(-c3cc(F)c(F)c(F)c3)nn2)[C@@H](O)[C@@H](CO)O[C@@H]1Cc1cn(C2CCS(=N)(=O)CC2)nn1 (stereo partly drawn) [Example 4.17]")
0.025
>>> endpoint_result("CO[C@@H]1[C@@H](n2cc(-c3cc(F)c(F)c(F)c3)nn2)[C@@H](O)[C@@H](CO)O[C@@H]1Cn1cc(C(C)(C)O)nn1 [Example 4.44]")
0.24

Now consider a different compound.
[in] Endpoint output: IC50 of CN=[S@@](=O)(C(C)C)N1CCC(c2cc(C[C@H]3O[C@H](CO)[C@H](O)[C@H](n4cc(-c5cc(F)c(F)c(F)c5)nn4)[C@H]3OC)no2)CC1 [Ex 1.138] . Value?
[out] 0.13
